# tested target: TORC1 (Tor1 kinase subunit) (Saccharomyces cerevisiae)
# Construct: TORC1 complex purified from yeast via Tco89-TEV-TAP (quantified with respect to the Tor1 subunit); with Kog1, Lst8, Tco89 (TORC1 subunits)
# Sequence (P35169 whole entry): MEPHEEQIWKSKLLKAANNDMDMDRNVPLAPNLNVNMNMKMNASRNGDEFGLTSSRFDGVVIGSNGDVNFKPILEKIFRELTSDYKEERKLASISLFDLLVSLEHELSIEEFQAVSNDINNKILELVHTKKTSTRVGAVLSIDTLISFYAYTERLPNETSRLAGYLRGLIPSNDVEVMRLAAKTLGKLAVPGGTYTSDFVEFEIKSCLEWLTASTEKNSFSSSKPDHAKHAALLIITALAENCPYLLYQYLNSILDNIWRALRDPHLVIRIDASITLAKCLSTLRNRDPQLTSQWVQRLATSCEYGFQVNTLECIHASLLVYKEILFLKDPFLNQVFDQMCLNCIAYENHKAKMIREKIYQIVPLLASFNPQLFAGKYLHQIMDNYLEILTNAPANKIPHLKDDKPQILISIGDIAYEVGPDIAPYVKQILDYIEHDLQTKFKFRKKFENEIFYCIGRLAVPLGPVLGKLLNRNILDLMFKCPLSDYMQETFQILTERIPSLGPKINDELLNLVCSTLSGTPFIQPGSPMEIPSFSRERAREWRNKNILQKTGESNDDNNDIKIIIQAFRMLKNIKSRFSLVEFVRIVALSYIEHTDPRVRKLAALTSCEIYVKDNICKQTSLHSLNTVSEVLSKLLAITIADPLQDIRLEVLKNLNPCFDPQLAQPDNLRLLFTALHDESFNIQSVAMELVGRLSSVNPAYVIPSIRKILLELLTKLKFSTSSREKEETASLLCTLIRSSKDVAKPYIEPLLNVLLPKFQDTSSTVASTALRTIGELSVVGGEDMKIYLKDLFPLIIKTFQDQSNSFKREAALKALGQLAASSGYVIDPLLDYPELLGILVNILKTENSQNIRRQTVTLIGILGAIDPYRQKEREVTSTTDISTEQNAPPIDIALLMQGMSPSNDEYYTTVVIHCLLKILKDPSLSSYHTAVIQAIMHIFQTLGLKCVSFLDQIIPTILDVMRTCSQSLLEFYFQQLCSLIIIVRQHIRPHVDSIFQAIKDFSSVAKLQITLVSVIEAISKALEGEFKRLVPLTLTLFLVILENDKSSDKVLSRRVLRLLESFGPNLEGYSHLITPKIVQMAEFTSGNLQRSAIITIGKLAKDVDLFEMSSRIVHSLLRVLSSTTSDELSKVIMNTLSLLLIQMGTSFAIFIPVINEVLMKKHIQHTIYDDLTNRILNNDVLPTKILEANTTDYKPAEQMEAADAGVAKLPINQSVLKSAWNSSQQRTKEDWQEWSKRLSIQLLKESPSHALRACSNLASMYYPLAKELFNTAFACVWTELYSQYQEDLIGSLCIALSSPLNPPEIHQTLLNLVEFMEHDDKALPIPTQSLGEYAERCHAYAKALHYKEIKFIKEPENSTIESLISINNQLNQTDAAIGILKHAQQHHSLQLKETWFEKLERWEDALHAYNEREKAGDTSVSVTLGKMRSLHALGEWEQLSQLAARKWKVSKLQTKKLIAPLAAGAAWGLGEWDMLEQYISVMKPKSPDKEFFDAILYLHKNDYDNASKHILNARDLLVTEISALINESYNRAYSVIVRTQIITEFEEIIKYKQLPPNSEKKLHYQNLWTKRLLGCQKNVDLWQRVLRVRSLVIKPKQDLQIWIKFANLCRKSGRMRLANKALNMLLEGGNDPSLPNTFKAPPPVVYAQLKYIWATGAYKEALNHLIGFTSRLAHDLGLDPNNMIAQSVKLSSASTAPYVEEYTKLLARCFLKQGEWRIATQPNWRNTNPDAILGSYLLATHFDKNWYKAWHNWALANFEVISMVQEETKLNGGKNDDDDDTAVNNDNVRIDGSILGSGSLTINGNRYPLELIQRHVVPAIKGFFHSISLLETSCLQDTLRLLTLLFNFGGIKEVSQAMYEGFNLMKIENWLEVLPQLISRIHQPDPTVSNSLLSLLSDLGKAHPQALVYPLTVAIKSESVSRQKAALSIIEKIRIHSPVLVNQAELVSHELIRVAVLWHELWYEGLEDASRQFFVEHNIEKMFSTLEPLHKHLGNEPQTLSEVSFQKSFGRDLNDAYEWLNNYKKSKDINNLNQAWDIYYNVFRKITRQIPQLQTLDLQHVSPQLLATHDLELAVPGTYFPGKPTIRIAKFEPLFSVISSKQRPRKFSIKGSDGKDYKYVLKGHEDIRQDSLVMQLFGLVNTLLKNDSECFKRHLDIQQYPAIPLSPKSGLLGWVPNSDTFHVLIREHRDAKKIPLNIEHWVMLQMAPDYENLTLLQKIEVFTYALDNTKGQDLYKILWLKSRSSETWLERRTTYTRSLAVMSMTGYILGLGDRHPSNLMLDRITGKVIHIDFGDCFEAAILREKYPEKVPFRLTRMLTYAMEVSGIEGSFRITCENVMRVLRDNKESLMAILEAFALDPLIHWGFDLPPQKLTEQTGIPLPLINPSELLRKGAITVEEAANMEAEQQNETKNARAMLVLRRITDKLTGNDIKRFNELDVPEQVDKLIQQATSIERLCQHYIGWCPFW
# Sequence (P38873 whole entry partner): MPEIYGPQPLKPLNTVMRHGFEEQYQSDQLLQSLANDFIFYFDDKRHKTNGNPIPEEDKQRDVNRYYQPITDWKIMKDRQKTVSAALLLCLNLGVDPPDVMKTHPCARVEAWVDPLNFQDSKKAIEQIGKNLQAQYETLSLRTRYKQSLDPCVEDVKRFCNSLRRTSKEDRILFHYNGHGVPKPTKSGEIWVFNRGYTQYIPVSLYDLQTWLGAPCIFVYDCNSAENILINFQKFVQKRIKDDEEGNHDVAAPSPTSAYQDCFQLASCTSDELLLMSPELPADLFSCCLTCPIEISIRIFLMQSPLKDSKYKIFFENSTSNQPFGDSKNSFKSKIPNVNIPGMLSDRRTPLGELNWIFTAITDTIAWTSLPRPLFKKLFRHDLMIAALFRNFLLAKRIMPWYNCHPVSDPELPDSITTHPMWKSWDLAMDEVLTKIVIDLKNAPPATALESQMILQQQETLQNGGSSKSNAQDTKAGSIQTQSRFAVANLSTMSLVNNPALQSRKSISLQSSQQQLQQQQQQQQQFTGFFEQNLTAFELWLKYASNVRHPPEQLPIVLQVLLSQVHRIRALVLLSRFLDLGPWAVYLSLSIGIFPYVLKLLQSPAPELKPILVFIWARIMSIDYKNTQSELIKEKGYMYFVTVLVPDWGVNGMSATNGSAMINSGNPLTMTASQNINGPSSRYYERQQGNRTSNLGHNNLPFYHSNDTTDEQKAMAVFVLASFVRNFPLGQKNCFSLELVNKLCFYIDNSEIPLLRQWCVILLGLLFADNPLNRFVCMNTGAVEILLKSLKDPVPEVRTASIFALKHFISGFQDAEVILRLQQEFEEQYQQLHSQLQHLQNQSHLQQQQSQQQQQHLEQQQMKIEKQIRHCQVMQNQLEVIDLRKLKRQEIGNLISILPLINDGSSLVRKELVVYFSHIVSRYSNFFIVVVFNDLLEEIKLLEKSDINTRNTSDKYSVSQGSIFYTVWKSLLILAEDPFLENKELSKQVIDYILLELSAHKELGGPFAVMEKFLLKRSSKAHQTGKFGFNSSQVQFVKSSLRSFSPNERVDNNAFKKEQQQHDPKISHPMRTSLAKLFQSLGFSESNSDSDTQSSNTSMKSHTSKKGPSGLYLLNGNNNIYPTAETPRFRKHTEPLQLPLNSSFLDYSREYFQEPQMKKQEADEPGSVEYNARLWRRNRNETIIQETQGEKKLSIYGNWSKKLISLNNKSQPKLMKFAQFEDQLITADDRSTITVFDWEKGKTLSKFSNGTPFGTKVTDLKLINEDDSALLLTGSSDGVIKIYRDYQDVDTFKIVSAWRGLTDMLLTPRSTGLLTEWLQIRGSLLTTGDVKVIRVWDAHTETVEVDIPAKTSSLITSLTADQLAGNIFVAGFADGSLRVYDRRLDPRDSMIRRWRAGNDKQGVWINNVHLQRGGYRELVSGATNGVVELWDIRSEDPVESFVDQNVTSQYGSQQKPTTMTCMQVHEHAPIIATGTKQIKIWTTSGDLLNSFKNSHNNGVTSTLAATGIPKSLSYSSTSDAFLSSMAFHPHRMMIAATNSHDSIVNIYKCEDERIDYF
# Sequence (P41318 whole entry partner): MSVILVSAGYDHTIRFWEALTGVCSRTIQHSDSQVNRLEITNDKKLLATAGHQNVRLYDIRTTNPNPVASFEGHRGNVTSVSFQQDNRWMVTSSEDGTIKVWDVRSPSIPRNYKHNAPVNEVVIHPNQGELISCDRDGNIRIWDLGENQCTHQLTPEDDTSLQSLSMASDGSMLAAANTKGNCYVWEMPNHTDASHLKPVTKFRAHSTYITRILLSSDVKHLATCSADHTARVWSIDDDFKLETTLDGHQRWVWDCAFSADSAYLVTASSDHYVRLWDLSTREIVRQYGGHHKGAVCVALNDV
# assay name: in vitro radioactive [γ-32P]-ATP kinase assay with purified TORC1, Lst4 loop substrate; enzyme kinetics
# Type: biochemical
quantity name: pKi
Numbers only, as −log10 of the molar value.

# compound O=C(O)Cc1c[nH]c2ccccc12 [IAA, Indole-3-acetic acid] ; its pKi = 5.62
